protocol-text: inhibition of 3D7 malaria parasite growth – strain 3D7 (AID 2306);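 also: 0% = DMSO wells and 100% = chloroquine plus artemisinin control wells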
condition-context: P. falciparum 3D7 erythrocytic growth, LDH absorbance, 72 h; at 2 µM; hits give high values
value-type: growth inhibition (%)

| compound-smiles | value-type | experimental-result |
| --- | --- | --- |
| CN1CCC(NC(=O)c2cccc(Nc3cc(Nc4cccc(Br)c4)ncn3)c2)CC1 | growth inhibition | 94 |
| COc1cc2nccc(Nc3ccc(Oc4ccccc4)cc3)c2cc1OC | growth inhibition | 102 |
| Fc1ccc2[nH]cc(CCNCc3ccc(-c4cccc(-c5nc6ccccc6[nH]5)c4)cc3)c2c1 | growth inhibition | 100 |
| O[C@@H](c1ccccc1)[C@@H]1CN(Cc2ccccc2)CC[C@@]1(O)c1ccccc1 | growth inhibition | 91 |
| Cc1ccc(-c2cnc3[nH]cc(-c4ccc(C(=O)O)c(C)c4)c3c2)cc1C | growth inhibition | 96 |

Hey, just so you know, these numbers are from PubChem BioAssay.
